The entries below are paired with their reported EC50.
target: GII.17 (norovirus GII.17); test: ELISA
endpointLabel: EC50 (nM)

{"binder": "310A (antibody, V domains shown) VH: EVQLVESGGGLVRPGESLRLSCVASGFSVSDNYMSWVRQAPGKGLQWVSVIYSGGTTFYTDSVKGRFTISRDKSKNTLFLQMNSLRAEDTAVYFCTRDPSQYYDSRGHYYQTFTPSFDSWGQGTLVTVSS VL: DIQMTQSPSVMSASVGDRVTITCRASQDISDYLAWFQQKPGKVPKRLIYAASSLQNGVPSRFSGSGSGTEFTLTISSLQPEDFATYYCLQHDTYPLTFGGGTKVEIK", "endpointLabel": "EC50", "dataValue": 40}
{"binder": "156.3 (antibody, V domains shown) VH: QVQLQQWGAGLLKPSETLSLTCAVYGGSFSGYYWSWIRQPPGKGLEWIGEINHSGSTNYNPSLKSRVTISVDTSKNQFSLKLSSVTAADTAVYYCARGLMDVWGQGTLVTVSS VL: AIRMTQSPSSFSASTGDRVTITCRASQGISSYLAWYQQKPGKAPKLLIYAASTLQSGVPSRFSGSGSGTDFTLTISCLQSEDFATYYCQQYYSYPRTFGQGTKLEIK", "endpointLabel": "EC50", "dataValue": 90}
{"binder": "168.2 (antibody, V domains shown) VH: QVQLVESGGGVVQPGRSLRLSCAASGFTFSSYAMHWVRQAPGKGLEWVAVISYDGSNKYYADSVKGRFTISRDNSKNTLYLQMNSLRAEDTAVYYCARSVIGYYYYGMDVWGQGTLVTVSS VL: QPVLTQPPSASASLGASVTLTCTLSSGYSNYKVDWYQQRPGKGPRFVMRVGTGGIVGSKGDGIPDRFSVLGSGLNRYLTIKNIQEEDESDYHCGADHGSGILFGGGTKLTVL", "endpointLabel": "EC50", "dataValue": 153}

Taken from patent US20210324050A1.
